Test target: Serine/threonine-protein kinase 17A (Homo sapiens, UniProt Q9UEE5)
Sequence (Q9UEE5 whole entry): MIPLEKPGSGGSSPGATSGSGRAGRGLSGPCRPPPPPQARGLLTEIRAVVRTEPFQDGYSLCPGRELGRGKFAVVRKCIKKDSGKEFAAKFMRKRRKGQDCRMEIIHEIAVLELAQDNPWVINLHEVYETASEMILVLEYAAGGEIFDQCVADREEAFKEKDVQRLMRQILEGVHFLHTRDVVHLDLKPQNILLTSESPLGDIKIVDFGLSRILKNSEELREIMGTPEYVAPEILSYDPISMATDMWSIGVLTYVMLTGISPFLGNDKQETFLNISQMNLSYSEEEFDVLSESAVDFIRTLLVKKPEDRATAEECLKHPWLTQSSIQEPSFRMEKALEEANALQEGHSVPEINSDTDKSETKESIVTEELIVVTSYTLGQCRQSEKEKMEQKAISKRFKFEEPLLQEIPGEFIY
Observable: IC50 (µM)

Structure: O=C1/C(=C/c2ccc(O)c(O)c2)Oc2cc(O)ccc21
Value observed: 5.85

---

Each entry below carries its recorded IC50.
Test target: Tyrosine-protein kinase Blk (Homo sapiens)
Sequence (P51451 whole entry): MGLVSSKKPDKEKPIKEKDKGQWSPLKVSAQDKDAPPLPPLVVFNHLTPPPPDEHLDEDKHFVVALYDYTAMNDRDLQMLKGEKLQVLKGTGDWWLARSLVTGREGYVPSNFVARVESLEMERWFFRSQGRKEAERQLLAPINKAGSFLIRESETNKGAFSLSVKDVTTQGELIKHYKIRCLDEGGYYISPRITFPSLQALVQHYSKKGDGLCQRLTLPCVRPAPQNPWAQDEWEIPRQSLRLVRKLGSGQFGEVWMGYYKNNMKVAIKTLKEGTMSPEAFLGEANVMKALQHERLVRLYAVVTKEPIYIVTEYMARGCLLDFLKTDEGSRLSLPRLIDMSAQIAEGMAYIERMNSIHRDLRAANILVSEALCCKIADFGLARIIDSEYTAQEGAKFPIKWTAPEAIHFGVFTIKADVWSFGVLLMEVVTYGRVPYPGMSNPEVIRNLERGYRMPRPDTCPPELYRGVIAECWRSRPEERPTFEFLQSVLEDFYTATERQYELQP
Observable: IC50 (µM)

Structure: COc1ccc2c(c1)C(=O)/C(=C/c1ccc(O)c(O)c1)O2
Observable: IC50
Value observed: 3.05
//
Structure: CCOc1cc(/C=C2\Oc3ccc(OC)cc3C2=O)ccc1O
Observable: IC50
Value observed: 5.26

---

Test target: Tyrosine-protein kinase ITK/TSK (Homo sapiens, UniProt Q08881)
Sequence (Q08881 whole entry): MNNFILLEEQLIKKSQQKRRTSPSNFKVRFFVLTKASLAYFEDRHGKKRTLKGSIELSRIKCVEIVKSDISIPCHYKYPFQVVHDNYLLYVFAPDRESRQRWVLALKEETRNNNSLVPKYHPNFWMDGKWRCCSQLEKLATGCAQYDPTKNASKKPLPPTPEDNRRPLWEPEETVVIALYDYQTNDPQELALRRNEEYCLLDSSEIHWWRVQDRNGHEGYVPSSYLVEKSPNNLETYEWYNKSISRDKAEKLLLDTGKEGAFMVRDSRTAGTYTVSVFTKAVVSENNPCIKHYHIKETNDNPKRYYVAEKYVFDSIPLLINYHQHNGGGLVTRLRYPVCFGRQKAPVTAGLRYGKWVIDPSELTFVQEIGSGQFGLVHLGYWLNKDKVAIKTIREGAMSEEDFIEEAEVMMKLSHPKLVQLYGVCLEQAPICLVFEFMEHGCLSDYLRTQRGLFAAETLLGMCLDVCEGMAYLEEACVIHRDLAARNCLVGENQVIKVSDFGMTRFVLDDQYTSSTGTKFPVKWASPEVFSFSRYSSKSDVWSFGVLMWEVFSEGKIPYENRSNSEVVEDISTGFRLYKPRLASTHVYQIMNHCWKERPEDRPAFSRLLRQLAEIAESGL
pIC50: −log10 of the molar value.

Structure: O=C1/C(=C/c2ccc(O)c(O)c2)Oc2cc(O)ccc21
Test target: Tyrosine-protein kinase ITK/TSK (Homo sapiens, UniProt Q08881)
pIC50: 5.69

---

Test target: Serine/threonine-protein kinase 17B (Homo sapiens, UniProt O94768)
Sequence (O94768 whole entry): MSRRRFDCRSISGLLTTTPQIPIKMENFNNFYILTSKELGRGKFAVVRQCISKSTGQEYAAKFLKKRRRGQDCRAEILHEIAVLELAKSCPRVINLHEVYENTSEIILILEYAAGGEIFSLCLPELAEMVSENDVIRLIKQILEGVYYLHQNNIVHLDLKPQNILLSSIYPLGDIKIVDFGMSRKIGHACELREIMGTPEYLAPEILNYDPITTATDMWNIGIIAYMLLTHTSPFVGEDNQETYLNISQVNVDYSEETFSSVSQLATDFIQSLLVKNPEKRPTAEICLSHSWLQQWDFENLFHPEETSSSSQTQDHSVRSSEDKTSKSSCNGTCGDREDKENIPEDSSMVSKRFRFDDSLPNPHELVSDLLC
Test summary: Inhibition of recombinant GST-tagged DRAK2 (unknown origin) autophosphorylation after 2 hrs by ADP-glo assay
pIC50: −log10 of the molar value.
Note to self: values exactly at 5 are yes. So pIC50 at or above 5 is yes, below is no.

Molecule: CCOc1cc(/C=C2\Oc3cc(OC)ccc3C2=O)ccc1O
Test target: Serine/threonine-protein kinase 17B (Homo sapiens, UniProt O94768)
Assigned label: yes
//
Molecule: O=C(c1ccc(O)c(O)c1)c1cc2ccccc2o1
Test target: Serine/threonine-protein kinase 17B (Homo sapiens, UniProt O94768)
Assigned label: no
//
Molecule: O=C1/C(=C/c2ccccc2)Oc2ccccc21 [(Z)-AURONE]
Test target: Serine/threonine-protein kinase 17B (Homo sapiens, UniProt O94768)
Assigned label: no
//
Molecule: O=C1/C(=C/c2ccc(F)cc2)Oc2ccccc21
Test target: Serine/threonine-protein kinase 17B (Homo sapiens, UniProt O94768)
Assigned label: no
//
Molecule: CCOc1cc(/C=C2\Oc3ccc(F)cc3C2=O)ccc1O
Test target: Serine/threonine-protein kinase 17B (Homo sapiens, UniProt O94768)
Assigned label: yes
//
Molecule: CCCCOc1cc(/C=C2\Oc3ccccc3C2=O)ccc1O
Test target: Serine/threonine-protein kinase 17B (Homo sapiens, UniProt O94768)
Assigned label: no
//
Molecule: CCOc1cc(/C=C2\Oc3ccc(I)cc3C2=O)ccc1O
Test target: Serine/threonine-protein kinase 17B (Homo sapiens, UniProt O94768)
Assigned label: no
//
Molecule: CCCOc1cc(/C=C2\Oc3ccccc3C2=O)ccc1O
Test target: Serine/threonine-protein kinase 17B (Homo sapiens, UniProt O94768)
Assigned label: yes
//
Molecule: CCOc1cc(/C=C2\Oc3ccccc3C2=O)ccc1O
Test target: Serine/threonine-protein kinase 17B (Homo sapiens, UniProt O94768)
Assigned label: yes
//
Molecule: CCOc1cc(/C=C2\Oc3cc(F)ccc3C2=O)ccc1O
Test target: Serine/threonine-protein kinase 17B (Homo sapiens, UniProt O94768)
Assigned label: no
//
Molecule: CCOc1cc(/C=C2\Oc3ccc(C)cc3C2=O)ccc1O
Test target: Serine/threonine-protein kinase 17B (Homo sapiens, UniProt O94768)
Assigned label: yes
//
Molecule: CCOc1cc(/C=C2\Oc3c(OC)cccc3C2=O)ccc1O
Test target: Serine/threonine-protein kinase 17B (Homo sapiens, UniProt O94768)
Assigned label: yes
